Where do the numbers come from? From patent US4450269A.

tested on: Pyricularia oryzae; assay type: cell-based; conditions: PO, 1.0 ppm, 48 hours
The molecules listed here are annotated with their Spore Germination Rating.
PARAMETER: Spore Germination Rating

>>> print(df.to_string())
                                   molecule      result
0  O=c1c(Cl)nsnc1Oc1cccc2ccccc12 [Compound 32]   2 (40-60)
1  Cc1ccc(Oc2nsnc(Cl)c2=O)c(C)c1 [Compound 23]  4 (80-100)
2  COc1ccc(Oc2nsnc(Cl)c2=O)cc1 [Compound 5]  4 (80-100)
3  O=c1c(Cl)nsnc1Oc1ccc(Cl)cc1 [Compound 12]    0 (0-10)
4    Cc1ccccc1Oc1nsnc(Cl)c1=O [Compound 22]   2 (40-60)

----------
test system: Cladosporium cucumerinum; test: Mycelial growth test; format: cell-based; settings: Cladosporium cucumerinum, 72 h, CC, 40 ppm, read-out: Percent Fungus Growth Inhibition
PARAMETER: inhibition at 40 ppm

>>> df
                                   compound             parameter  result
0  COc1cc(Cl)cc(Oc2nsnc(Cl)c2=O)c1 [Compound 52]  inhibition at 40 ppm     77%
1  CSc1ccc(Oc2nsnc(Cl)c2=O)cc1 [Compound 39]  inhibition at 40 ppm     32%
2  N#CCc1ccc(Oc2nsnc(Cl)c2=O)cc1 [Compound 46]  inhibition at 40 ppm    100%
3  Cc1cc(Oc2nsnc(Cl)c2=O)ccc1Cl [Compound 54]  inhibition at 40 ppm     50%
4  Cc1cc(Cl)c(Oc2nsnc(Cl)c2=O)cc1C [Compound 58]  inhibition at 40 ppm     61%
5  O=c1c(Cl)nsnc1Oc1cccc(C(F)(F)F)c1 [Compound 44]  inhibition at 40 ppm    100%

----------
The molecules listed here are annotated with their pest or weed control at 150 ppm.
test system: Uromyces phaseoli; test: whole plant or invertebrate; settings: foliar, read-out: Percent Disease Control, foliar, bean rust
PARAMETER: pest or weed control at 150 ppm (%)

>>> df
                                   molecule    measured_target                        parameter  quantitative_readout
0  CC(=O)Nc1cccc(Oc2nsnc(Cl)c2=O)c1 [Compound 42]  Uromyces phaseoli  pest or weed control at 150 ppm                   100
1  O=c1c(Cl)nsnc1Oc1c(Cl)c(Cl)c(Cl)c(Cl)c1Cl [Compound 31]  Uromyces phaseoli  pest or weed control at 150 ppm                     0
2  O=c1c(Cl)nsnc1Oc1ccc([N+](=O)[O-])cc1Cl [Compound 53]  Uromyces phaseoli  pest or weed control at 150 ppm                   100
3  Cc1cc(Oc2nsnc(Cl)c2=O)cc(C)c1Br [Compound 60]  Uromyces phaseoli  pest or weed control at 150 ppm                   100
4  O=C(O)Cc1ccccc1Oc1nsnc(Cl)c1=O [Compound 45]  Uromyces phaseoli  pest or weed control at 150 ppm                    95
5  Cc1cc(Oc2nsnc(Cl)c2=O)cc(C)c1Cl [Compound 59]  Uromyces phaseoli  pest or weed control at 150 ppm                     0
6  CC(C)(C)c1ccc(Oc2nsnc(Cl)c2=O)cc1 [Compound 4]  Uromyces phaseoli  pest or weed control at 150 ppm                   100
7  N#CCc1ccc(Oc2nsnc(Cl)c2=O)cc1 [Compound 46]  Uromyces phaseoli  pest or weed control at 150 ppm                     0
8  Cc1cc(C)cc(Oc2nsnc(Cl)c2=O)c1 [Compound 25]  Uromyces phaseoli  pest or weed control at 150 ppm                   100

----------
The compounds listed here are annotated with their Spore Germination Rating.
tested on: Alternaria solani; experiment: Spore germination test; format: cell-based; details: AS, 1.0 ppm, 48 hours
PARAMETER: Spore Germination Rating

>>> print(df.to_string())
                                    compound                 parameter      result
 0  CS(=O)(=O)c1ccc(Oc2nsnc(Cl)c2=O)cc1 [Compound 41]  Spore Germination Rating  4 (80-100)
 1  O=c1c(Cl)nsnc1Oc1cccc2ccccc12 [Compound 32]  Spore Germination Rating   3 (60-80)
 2  CC(=O)c1cccc(Oc2nsnc(Cl)c2=O)c1 [Compound 48]  Spore Germination Rating  4 (80-100)
 3  O=C(O)Cc1ccccc1Oc1nsnc(Cl)c1=O [Compound 45]  Spore Germination Rating  4 (80-100)
 4  Cc1cc(Cl)ccc1Oc1nsnc(Cl)c1=O [Compound 55]  Spore Germination Rating  4 (80-100)
 5  N#Cc1ccc(Oc2nsnc(Cl)c2=O)cc1 [Compound 10]  Spore Germination Rating   1 (10-40)
 6  O=c1c(Cl)nsnc1Oc1ccc(Cl)c(Cl)c1 [Compound 16]  Spore Germination Rating   1 (10-40)
 7  CNC(=O)Nc1ccc(Oc2nsnc(Cl)c2=O)cc1 [Compound 28]  Spore Germination Rating  4 (80-100)
 8  Cc1cc(Cl)c(Oc2nsnc(Cl)c2=O)cc1C [Compound 58]  Spore Germination Rating  4 (80-100)
 9      O=c1c(Cl)nsnc1Oc1ccccc1 [Compound 2]  Spore Germination Rating  4 (80-100)
10  O=c1c(Cl)nsnc1Oc1ccc(Cl)cc1 [Compound 12]  Spore Germination Rating   3 (60-80)
11  CC(=O)c1ccc(Oc2nsnc(Cl)c2=O)cc1 [Compound 47]  Spore Germination Rating   2 (40-60)
12  COc1cc(Oc2nsnc(Cl)c2=O)cc(OC)c1C(C)=O [Compound 61]  Spore Germination Rating  4 (80-100)
13    Cc1ccccc1Oc1nsnc(Cl)c1=O [Compound 22]  Spore Germination Rating   3 (60-80)
14  O=c1c(Cl)nsnc1Oc1ccc(Br)cc1 [Compound 15]  Spore Germination Rating  4 (80-100)
15  C[S+]([O-])c1ccc(Oc2nsnc(Cl)c2=O)cc1 (centres unmarked) [Compound 40]  Spore Germination Rating  4 (80-100)
16   Cc1ccc(Oc2nsnc(Cl)c2=O)cc1 [Compound 3]  Spore Germination Rating  4 (80-100)
17  CSc1ccc(Oc2nsnc(Cl)c2=O)cc1 [Compound 39]  Spore Germination Rating  4 (80-100)
18  CC(=O)Nc1cccc(Oc2nsnc(Cl)c2=O)c1 [Compound 42]  Spore Germination Rating  4 (80-100)
19  O=c1c(Cl)nsnc1Oc1cc(Cl)cc(Cl)c1 [Compound 20]  Spore Germination Rating   2 (40-60)
20  O=c1c(Cl)nsnc1Oc1cccc(Cl)c1Cl [Compound 19]  Spore Germination Rating   3 (60-80)
21  Cc1cc(C)cc(Oc2nsnc(Cl)c2=O)c1 [Compound 25]  Spore Germination Rating  4 (80-100)
22  COc1ccc(Cl)c(Oc2nsnc(Cl)c2=O)c1 [Compound 51]  Spore Germination Rating  4 (80-100)
23  Cc1cccc(C)c1Oc1nsnc(Cl)c1=O [Compound 24]  Spore Germination Rating   1 (10-40)
24  O=C(Nc1ccccc1)Nc1ccc(Oc2nsnc(Cl)c2=O)cc1 [Compound 29]  Spore Germination Rating  4 (80-100)
25  O=c1c(Cl)nsnc1Oc1ccc([N+](=O)[O-])cc1Cl [Compound 53]  Spore Germination Rating   2 (40-60)
26  O=c1c(Cl)nsnc1Oc1c(Cl)c(Cl)c(Cl)c(Cl)c1Cl [Compound 31]  Spore Germination Rating  4 (80-100)
27  CCOC(=O)c1ccc(Oc2nsnc(Cl)c2=O)cc1 [Compound 7]  Spore Germination Rating  4 (80-100)
28  CC(C)(C)c1ccc(Oc2nsnc(Cl)c2=O)cc1 [Compound 4]  Spore Germination Rating  4 (80-100)
29  O=c1c(Cl)nsnc1Oc1cccc(Cl)c1 [Compound 13]  Spore Germination Rating   2 (40-60)
30  CC(=O)c1ccccc1Oc1nsnc(Cl)c1=O [Compound 49]  Spore Germination Rating  4 (80-100)
31  O=c1c(Cl)nsnc1Oc1ccc([N+](=O)[O-])cc1 [Compound 9]  Spore Germination Rating    0 (0-10)
32  Cc1cc(Oc2nsnc(Cl)c2=O)ccc1Cl [Compound 54]  Spore Germination Rating  4 (80-100)
33  O=C(OCc1ccccc1)Oc1ccc(Oc2nsnc(Cl)c2=O)cc1 [Compound 38]  Spore Germination Rating  4 (80-100)
34  O=c1c(Cl)nsnc1Oc1ccc(F)cc1 [Compound 11]  Spore Germination Rating  4 (80-100)
35  COc1cc(Cl)cc(Oc2nsnc(Cl)c2=O)c1 [Compound 52]  Spore Germination Rating  4 (80-100)
36  N#CCc1ccc(Oc2nsnc(Cl)c2=O)cc1 [Compound 46]  Spore Germination Rating  4 (80-100)
37  O=C(Nc1ccccc1)Oc1ccc(Oc2nsnc(Cl)c2=O)cc1 [Compound 37]  Spore Germination Rating  4 (80-100)
38  CC(=O)Nc1ccccc1Oc1nsnc(Cl)c1=O [Compound 43]  Spore Germination Rating  4 (80-100)
39  CCCCOc1ccc(Oc2nsnc(Cl)c2=O)cc1 [Compound 6]  Spore Germination Rating  4 (80-100)
40   O=c1c(Cl)nsnc1Oc1ccccc1Cl [Compound 14]  Spore Germination Rating   3 (60-80)
41  O=c1c(Cl)nsnc1Oc1c(Cl)cc(Cl)cc1Cl [Compound 30]  Spore Germination Rating   3 (60-80)
42  Cc1cccc(Oc2nsnc(Cl)c2=O)c1 [Compound 21]  Spore Germination Rating   3 (60-80)
43  Nc1ccc(Oc2nsnc(Cl)c2=O)cc1 [Compound 26]  Spore Germination Rating  4 (80-100)
